All figures here come from ChEMBL document CHEMBL1129267.

log10(Ki): recorded values
biological target: D(3) dopamine receptor (Homo sapiens, UniProt P35462); test: Binding affinity against human Dopamine receptor D3 in CHO-K1 cells using [3H]spiperone as radioligand
Sequence (P35462 whole entry): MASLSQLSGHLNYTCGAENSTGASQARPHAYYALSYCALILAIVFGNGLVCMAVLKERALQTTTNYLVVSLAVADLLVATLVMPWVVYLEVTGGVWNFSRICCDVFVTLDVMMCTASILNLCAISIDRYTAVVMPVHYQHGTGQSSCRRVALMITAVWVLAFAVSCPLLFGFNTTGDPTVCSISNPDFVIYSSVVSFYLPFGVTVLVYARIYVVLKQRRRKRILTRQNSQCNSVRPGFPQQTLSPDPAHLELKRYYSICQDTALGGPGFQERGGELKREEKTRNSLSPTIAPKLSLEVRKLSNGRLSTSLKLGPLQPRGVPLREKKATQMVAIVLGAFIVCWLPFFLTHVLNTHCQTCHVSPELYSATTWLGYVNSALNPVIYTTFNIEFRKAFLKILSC
recorded_endpoint: log10(Ki) (log10 of the value in nM)

1. C(#Cc1cccnc1)CCN1CC=C(c2ccccc2)CC1: 1.30
2. Oc1ccc2[nH]cc(CCCCN3CC=C(c4ccccc4)CC3)c2c1: -0.40
3. Nc1ccc(C#CCCN2CC=C(c3ccccc3)CC2)nc1: 0.41
4. C(#Cc1ccncc1)CCN1CC=C(c2ccccc2)CC1: 0.81
5. Nc1ccc(C#CCCN2CC=C(c3ccccc3)CC2)cn1: 0.85
